method notes: protein stability index of a GFP-peptide fusion (yeast GPS) (PSI 1-4); higher = more stable; sorted into four equal gates, so the index is relative within each strain
stated conditions: san1∆
Each entry below carries its recorded protein stability index.
Kindly provide the number alone.

Here is how some sequences turned out for protein stability index.
LESDVNIALVSKLRNNI [SRP54]; 2.74
IWFPEDFISPELIIDKV [MED1]; 3.01

Returns the measured protein stability index for the input sequence. Input: FVSNMGFDIQKSCEPVS [SIR4]
1.68

Returns the measured protein stability index for the input sequence. Input: STDELVGSPLTVSILQE [POP8]
2

Returns the measured protein stability index for the input sequence. Input: PKMGVSSSSLECATCHG [RPO31]
3.32

Returns the measured protein stability index for the input sequence. Input: FEIIFPPTDTNVEESVS [POP5]
2.47

Returns the measured protein stability index for the input sequence. Input: NIKNTNEEATPIPSSET [RRP6]
2.44

Returns the measured protein stability index for the input sequence. Input: IKELRSKGYPIQFLTIG [FAS1]
1.43
